Target: MMP-13CD (catalytic domain of collagenase 3) (Homo sapiens, UniProt P45452)
Assay: Thiopeptolide hydrolysis assay, MMP-13;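 further: inhibition of enzymatic thiopeptolide substrate cleavage (100 µM) in pH 6.0 MES buffer with CaCl2 and DTNB, comparing hydrolysis with versus without inhibitor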
Conditions: MMP13 IC50 (μM), Table 1b
Counter-ions that a name gives are not always drawn.
Flag rule - IC50 less than 0.07 µM flags true (1); the remaining entries get false (0).

Cc1c(=O)n(Cc2ccccc2)c(=O)n2cc(C(=O)NCc3ccc(OC(F)(F)F)cc3)sc12    false (0)
COc1ccc(CNC(=O)c2cn3c(=O)n(Cc4ccccc4)c(=O)c(C)c3s2)cc1    true (1)
Cc1c(=O)n(Cc2ccccc2)c(=O)n2cc(C(=O)NCc3ccc(F)c(F)c3)sc12    true (1)
Cc1cccc(CNC(=O)c2cn3c(=O)n(Cc4ccccc4)c(=O)c(C)c3s2)c1    true (1)
COc1ccc(CNC(=O)c2cn3c(=O)n(Cc4ccccc4)c(=O)c(C)c3s2)cn1    true (1)
COC(=O)c1ccc(Cn2c(=O)c(C)c3sc(C(=O)NCc4ccc(F)cc4)cn3c2=O)cc1C    true (1)
CCC(C)n1c(=O)c(C)c2sc(C(=O)NCc3ccc(F)cc3)cn2c1=O (stereo not shown)    false (0)
Cc1c(=O)n(Cc2ccc(C(=O)N3CCOCC3)cc2)c(=O)n2cc(C(=O)NCc3ccc(F)cc3)sc12    true (1)
Cc1c(=O)n(Cc2ccccc2)c(=O)n2cc(C(=O)NCc3ccc4nsnc4c3)sc12    true (1)
O=C(NCc1ccc(Cl)c(Cl)c1)c1cn2c(=O)n(Cc3ccc(Cl)cc3)c(=O)cc2s1    false (0)
O=C(NCc1ccccc1)c1cn2c(=O)n(Cc3ccc(Cl)cc3)c(=O)cc2s1    false (0)
COC(=O)Nc1cc(Cn2c(=O)c(C)c3sc(C(=O)NCc4ccc(F)cc4)cn3c2=O)on1    false (0)
CC(C)=CCn1c(=O)c(C)c2sc(C(=O)NCc3ccc(F)cc3)cn2c1=O    false (0)
Cc1c(=O)n(Cc2ccc3oc(=O)ccc3c2)c(=O)n2cc(C(=O)NCc3ccc(F)cc3)sc12    true (1)
Cc1c(=O)n(Cc2ccccc2)c(=O)n2cc(C(=O)NCc3ccc(C(F)(F)F)cc3)sc12    false (0)
Cc1c(=O)n(Cc2ccccc2)c(=O)n2cc(C(=O)NCc3cccnc3)sc12 [hydrochloride]    false (0)
Cc1c(=O)n(Cc2nccs2)c(=O)n2cc(C(=O)NCc3ccc(F)cc3)sc12 [hydrochloride]    false (0)
O=C(NCc1ccccc1)c1cn2c(=O)n(C(=O)c3ccccc3)c(=O)cc2s1    false (0)
COc1ccc(CNC(=O)c2cn3c(=O)n(Cc4ccccc4)c(=O)c(C=O)c3s2)cc1    true (1)
O=C(NCc1ccncc1)C1Cn2c(cc(=O)n(Cc3ccccc3)c2=O)S1 (stereo not shown)    false (0)
C/C=C/Cn1c(=O)c(C)c2sc(C(=O)NCc3ccc(F)cc3)cn2c1=O    false (0)
COc1cccc(CNC(=O)c2cn3c(=O)n(Cc4ccccc4)c(=O)c(C)c3s2)c1    true (1)
Cc1c(=O)n(CCC(=O)c2ccc(F)cc2)c(=O)n2cc(C(=O)NCc3ccc(F)cc3)sc12    false (0)
COC(=O)c1ccc(Cn2c(=O)c(C)c3sc(C(=O)NCc4ccc(F)cc4)cn3c2=O)cc1    true (1)
Cc1c(=O)n(Cc2ccc(C(=O)O)cc2)c(=O)n2cc(C(=O)NCc3ccc(F)cc3)sc12    true (1)

###

Target: MMP-13CD (catalytic domain of collagenase 3) (Homo sapiens)
Experiment: Thiopeptolide hydrolysis assay, MMP-13
Settings: MMP13 IC50 μM, Table IVb
Reported log10 of IC50 values follow for various compounds
Recorded Metric: log10 of IC50 (log10 of the value in µM)

COc1ccc(CNC(=O)c2ccc3c(c2)c(=O)n(CCCC(=O)O)c(=O)n3C)cc1    0.06
COc1cc(CNC(=O)c2ccc3c(c2)c(=O)n(Cc2ccc(Br)cc2)c(=O)n3C)ccn1    -2.12
Cn1c(=O)n(Cc2ccc(C#N)cc2)c(=O)c2cc(C(=O)NCc3ccncc3)ccc21    -1.28
COC(=O)c1ccc(Cn2c(=O)[nH]c3ccc(C(=O)NCc4ccc(OC)cc4)cc3c2=O)cc1    -2.05
COC(=O)c1ccc(Cn2c(=O)c3cc(C(=O)NCc4ccc(OC)cc4)ncc3n(C)c2=O)cc1    -2.77
Cn1c(=O)n(Cc2ccccc2)c(=O)c2cc(C(=O)NCCCSc3ccncc3)ccc21    -1.59
CCN(CC)c1ccc(C(=O)Cn2c(=O)c3cc(C(=O)NCc4ccc(OC)cc4)ccc3n(C)c2=O)cc1    0.56
COc1ccc(CNC(=O)c2ccc3c(c2)c(=O)n(C/C=C/c2cccnc2)c(=O)n3C)cc1    -1.02
COc1ccc(CNC(=O)c2ccc3c(c2)c(=O)n(Cc2ccc(N(C)C)cc2)c(=O)n3C)cc1    -1.55

###

Reported pIC50 values follow for various compounds
Target: MMP-13CD (catalytic domain of collagenase 3) (Homo sapiens)
Experiment: biochemical
pIC50: −log10 of the molar value.
Recorded Metric: pIC50

COC(=O)c1ccc(CNC(=O)c2ccc3c(c2)c(=O)n(Cc2ccccc2)c(=O)n3C)cc1    5.65
COc1ccc(CNC(=O)c2ccc3[nH]c(=O)n(Cc4ccccc4)c(=O)c3c2)cc1    7.31
Cn1c(=O)n(C/C=C/c2ccccc2)c(=O)c2cc(C(=O)NCc3ccc4c(c3)OCO4)ccc21 [Synthesis Example 40]    7.66
O=C(OCc1ccncc1)c1cnc2[nH]c(=O)n(Cc3ccccc3)c(=O)c2c1    7.21
O=C(NCc1ccc2c(c1)OCO2)c1ccc2[nH]c(=O)n(Cc3ccc4c(c3)OCO4)c(=O)c2c1 [Synthesis Example 34]    7.77

###

Reported IC50 values follow for various molecules
Target: MMP-13CD (catalytic domain of collagenase 3) (Homo sapiens)
Test: Thiopeptolide hydrolysis assay, MMP-13
Settings: MMP13 IC50 (nM), Table II
Recorded Metric: IC50

COc1cccc(CNC(=O)c2cccc(C(=O)NCc3ccncc3)c2)c1    1400 nM
COc1cc(CNC(=O)c2cccc(C(=O)NCc3ccc(F)c(OC)c3)c2)ccc1F    930 nM
COc1ccc(CNC(=O)c2ccc(OC)c(C(=O)NCc3ccccc3)c2)cc1    810 nM

###

Reported IC50 values follow for various molecules
Target: MMP-3CD (catalytic domain of stromelysin) (Homo sapiens, UniProt P08254)
Sequence (P08254 100-272 limits assumed): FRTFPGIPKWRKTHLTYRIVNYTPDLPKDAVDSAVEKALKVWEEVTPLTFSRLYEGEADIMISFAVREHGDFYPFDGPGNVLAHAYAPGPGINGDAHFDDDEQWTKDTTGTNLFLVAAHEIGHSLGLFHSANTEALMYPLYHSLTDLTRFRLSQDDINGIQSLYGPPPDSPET
Assay: Thiopeptolide hydrolysis assay, MMP-3;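 further: inhibition of thiopeptolide substrate (100 µM) cleavage by the MMP-3 catalytic domain, detected with DTNB at pH 6.0 with CaCl2, hydrolysis compared against runs lacking inhibitor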
Assay type: biochemical
Conditions: Table 1b; read-out: MMP03 IC50
Counter-ions that a name gives are not always drawn.
Recorded Metric: IC50

Cc1c(=O)n(Cc2ccc3cc(F)ccc3n2)c(=O)n2cc(C(=O)NCc3ccc(F)cc3)sc12    18 µM
Cc1c(=O)n(Cc2ccc(C(=O)OCCN(C)C)cc2)c(=O)n2cc(C(=O)NCc3ccncc3)sc12 [dihydrochloride]    > 100 µM
Cc1c(=O)n(Cc2ccc(C(=O)OCCN(C)C)cc2)c(=O)n2cc(C(=O)NCc3ccc(F)cc3)sc12 [hydrochloride]    > 100 µM
Cc1c(=O)n(Cc2ccc(Cl)cc2)c(=O)n2cc(C(=O)NCc3ccncc3)sc12    > 30 µM
COC(=O)Nc1cc(Cn2c(=O)c(C)c3sc(C(=O)NCc4ccc(F)cc4)cn3c2=O)on1    > 30 µM
Cc1c(=O)n(Cc2ccccc2)c(=O)n2cc(C(=O)NCc3ccc(OC(F)(F)F)cc3)sc12    > 100 µM
Cc1c(=O)n(Cc2nccs2)c(=O)n2cc(C(=O)NCc3ccc(F)cc3)sc12 [hydrochloride]    > 30 µM

###

Molecular target: MMP-3CD (catalytic domain of stromelysin) (Homo sapiens)
Test: Thiopeptolide hydrolysis assay, MMP-3
Format: biochemical
Conditions: Table 1b; read-out: MMP03 IC50
pIC50: −log10 of the molar value. Counter-ions that a name gives are not always drawn.
Recorded Metric: pIC50

CC#CCn1c(=O)c(C)c2sc(C(=O)NCc3ccc(F)cc3)cn2c1=O    < 4.52
Cc1c(=O)n(Cc2ccccc2)c(=O)n2cc(C(=O)NCc3ccc(C(F)(F)F)cc3)sc12    < 4.00
O=C(NCc1ccccc1)c1cn2c(=O)n(Cc3ccc(Cl)c(Cl)c3)c(=O)cc2s1    < 4.52
Cc1c(=O)n(Cc2ccc(Br)cc2)c(=O)n2cc(C(=O)NCc3ccncc3)sc12 [hydrochloride]    < 4.52
Cc1c(=O)n(Cc2ccc(C#N)cc2)c(=O)n2cc(C(=O)NCc3ccncc3)sc12 [hydrochloride]    < 4.52
Cc1c(=O)n(Cc2ccccc2)c(=O)n2cc(C(=O)NCc3ccc(Cl)cc3)sc12    4.64
COc1ccc(CNC(=O)c2cn3c(=O)n(Cc4ccc(C(=O)O)cc4)c(=O)c(C)c3s2)cc1 [sodium salt]    4.44
Cc1c(=O)n(Cc2ccc(C(=O)O)cc2)c(=O)n2cc(C(=O)NCc3ccc(F)cc3)sc12    4.17
Cc1c(=O)n(Cc2ccc(C(=O)N3CCOCC3)cc2)c(=O)n2cc(C(=O)NCc3ccc(F)cc3)sc12    < 4.52
Cc1c(=O)n(Cc2ccccc2)c(=O)n2cc(C(=O)NCc3ccncc3)sc12 [hydrochloride]    < 4.52
Cc1c(=O)n(Cc2ccccc2)c(=O)n2cc(C(=O)NCc3cccnc3)sc12    < 4.52
